# Tested on: water-immersion stress ulcer
# Experiment summary: Antiulcer activity against water-immersion stress ulcer model
# Type: in vivo, Wistar strain male rats
# Run conditions: 100 mg/kg oral, 30 min before water immersion at 22 ± 1°C, stress load for 6 hours
Give measured Ulcer index for each item. Keep answers brief.
One number for each entry, in mm.

[[record]]
molecule = "Cc1nc2scc(C)n2c1C(O)c1ccccc1 (centres unmarked)"
endpoint_unit = "mm"
value_observed = 2.8

[[record]]
molecule = "CCCCc1sc2nc(C)c(C(O)CCC)n2c1C (centres unmarked)"
endpoint_unit = "mm"
value_observed = 18.8


For each entry beneath this line, provide reported Ulcer index.
1. CCCCc1sc2nc(C)c(CO)n2c1C
2. Cc1nc2scc(C)n2c1CO
3. Cc1nc2sccn2c1C(C)O (centres unmarked)

## Output
[13.3, 2.6, 19.5]

For each entry beneath this line, provide reported Ulcer index.
1. Cc1nc2sccn2c1C(O)c1ccccc1 (centres unmarked)
2. CCCCc1sc2nc(C)c(C(O)c3ccccc3)n2c1C (centres unmarked)
3. CCCC(O)c1c(C)nc2sccn12 (centres unmarked)

## Output
[3.6, 25.5, 7.4]

* * *

# System: gastric juice secretion
# Experiment summary: Gastric juice secretion inhibition activity (pyloric ligature)
# Format: in vivo, Wistar strain male rats
# Run conditions: 100 mg/kg oral; pyloric ligature 60 minutes after administration; four hours after; casein as substrate
Give measured Pepsin output for each item. Keep answers brief.

// known answers, use as guide
[[record]]
compound = "Cc1nc2sccn2c1C(C)O (centres unmarked) [Ex. 5]"
quantity_measured = "Pepsin output"
value_observed = "16.6 ± 2.2 mg of tyrosine/100g"

[[record]]
compound = "CCCCc1sc2nc(C)c(CO)n2c1C [Ex. 2]"
quantity_measured = "Pepsin output"
value_observed = "15.9 ± 2.1 mg of tyrosine/100g"

[[record]]
compound = "CCCCc1sc2nc(C)c(C(O)c3ccccc3)n2c1C (centres unmarked) [Ex. 7]"
quantity_measured = "Pepsin output"
value_observed = "27.2 ± 2.3 mg of tyrosine/100g"

[[record]]
compound = "Cc1nc2scc(C)n2c1CO [Ex. 1]"
quantity_measured = "Pepsin output"
value_observed = "12.0 ± 1.6 mg of tyrosine/100g"


## Input Please report the recorded Pepsin output for CCCCc1sc2nc(C)c(C(O)CCC)n2c1C (centres unmarked) [Ex. 6] .
## Output 21.6 ± 2.7 mg of tyrosine/100g

* * *

# System: SLC-ICR or SLC-ddy strain male mice
# Experiment summary: Acute toxicity
# Format: in vivo
# Run conditions: 1000 mg/kg, oral, once; observed for 7 days
Quantity measured: Mortality rate (No. of death/No. of treated)

// known answers, use as guide
[[record]]
compound = "Cc1nc2sccn2c1C(C)O (stereo not shown)"
target_or_test_system = "SLC-ICR or SLC-ddy strain male mice"
value_observed = "3/5"

[[record]]
compound = "CCCCc1sc2nc(C)c(C(O)CCC)n2c1C (stereo not shown)"
target_or_test_system = "SLC-ICR or SLC-ddy strain male mice"
value_observed = "0/5"

[[record]]
compound = "CCCC(O)c1c(C)nc2sccn12 (stereo not shown)"
target_or_test_system = "SLC-ICR or SLC-ddy strain male mice"
value_observed = "5/5"

[[record]]
compound = "CCCCc1sc2nc(C)c(C(O)c3ccccc3)n2c1C (stereo not shown)"
target_or_test_system = "SLC-ICR or SLC-ddy strain male mice"
value_observed = "0/5"

[[record]]
compound = "Cc1nc2sccn2c1C(O)c1ccccc1 (stereo not shown)"
target_or_test_system = "SLC-ICR or SLC-ddy strain male mice"
value_observed = "3/3"


For each entry beneath this line, provide reported Mortality rate (No. of death/No. of treated).
1. Cc1nc2scc(C)n2c1CO
2. CCCCc1sc2nc(C)c(CO)n2c1C

## Output
["1/5", "0/5"]

Cited source for all entries: patent EP0463212A1
